Values from patent US9321762B2

# measured on: B-Raf(V600E) kinase (Homo sapiens, UniProt P15056, V600E)
# Construct: purchased Upstate Biotechnology
# Sequence (P15056 whole entry V600E): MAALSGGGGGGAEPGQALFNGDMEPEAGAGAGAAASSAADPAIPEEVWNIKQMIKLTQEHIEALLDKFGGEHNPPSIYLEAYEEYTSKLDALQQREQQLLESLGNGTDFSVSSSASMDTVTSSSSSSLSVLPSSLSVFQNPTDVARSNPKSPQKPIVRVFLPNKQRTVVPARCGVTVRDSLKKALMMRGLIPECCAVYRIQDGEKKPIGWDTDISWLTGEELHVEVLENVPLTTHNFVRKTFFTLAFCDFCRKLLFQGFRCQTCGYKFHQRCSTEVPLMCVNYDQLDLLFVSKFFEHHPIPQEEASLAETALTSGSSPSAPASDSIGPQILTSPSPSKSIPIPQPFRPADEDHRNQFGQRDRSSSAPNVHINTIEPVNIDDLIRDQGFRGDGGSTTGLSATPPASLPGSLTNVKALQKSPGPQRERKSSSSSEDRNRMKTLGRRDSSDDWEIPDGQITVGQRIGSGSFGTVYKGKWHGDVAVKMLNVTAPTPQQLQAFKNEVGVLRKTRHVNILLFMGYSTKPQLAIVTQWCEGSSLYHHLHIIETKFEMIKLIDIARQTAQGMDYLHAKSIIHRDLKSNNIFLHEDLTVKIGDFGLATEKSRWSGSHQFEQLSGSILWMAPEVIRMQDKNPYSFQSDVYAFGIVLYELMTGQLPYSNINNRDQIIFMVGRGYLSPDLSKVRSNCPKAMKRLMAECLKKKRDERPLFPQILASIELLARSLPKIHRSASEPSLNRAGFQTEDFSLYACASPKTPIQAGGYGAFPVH
# experiment summary: B-Raf(V600E) kinase assay ([33P] incorporation into MEK1(K97R))
# Assay type: biochemical
# condition summary: class symbols; 8 μM ATP; read-out: IC50 against B-Raf(V600E) kinase
Reported IC50 values follow for various compounds

• CCCS(=O)(=O)Nc1ccc(F)c(Nc2ncnc3ccc(-c4ccc(F)nc4)cc23)c1F [compound 3] = < 300 nM

## Input State the recorded IC50 for this entry: CCCS(=O)(=O)Nc1ccc(F)c(Nc2ccnc3ccc(-c4ccncc4)cc23)c1F [compound 14]
## Output < 300 nM

## Input Now consider CCCS(=O)(=O)Nc1ccc(F)c(Nc2ncnc3ccc(-c4cccnc4F)cc23)c1Cl [compound 9] .
## Output 1000 to 10000 nM

## Input Also need CCCS(=O)(=O)Nc1ccc(F)c(Nc2ncnc3ccc(-c4cccc(OC)n4)cc23)c1F [compound 37] , thanks.
## Output < 300 nM
